- Tested on: HMLE_sh_eGFP viability, CellTiter-Glo luminescence, 72 h
- Protocol: cytotoxicity in HMLE control line with eGFP shRNA, dose response, counter-screen for HMLE_sh_ECad selective toxicity project, cell-based, HMLE_sh_eGFP, luminescence (AID 463074);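 further: counterscreen control line to flag general toxicity for the HMLE_sh_ECad screen; potency for loss of viability as luminescence drops below DMSO wells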
Activity calls are given as the source filed them.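 How the source made its calls: active means AC50 no more than tenfold above the top dose tested, or full inhibition at every dose with a flat fit (cut at about 19 µM in these data); inconclusive means flat curve fit with inhibition between 30% and 70%, or poor fit; inactive means AC50 more than tenfold above the top dose tested.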
Possible outcomes: active, inactive

[[record]]
compound = "O=C1NC(c2ccc(-c3ccccc3[N+](=O)[O-])o2)C(C(=O)c2ccc(Cl)cc2)C(O)(C(F)(F)F)N1 (stereo not given)"
assigned_label = "active"

[[record]]
compound = "CCN(Cc1ccccc1)c1ccc(/C=N/N=C(N)N)cc1"
assigned_label = "active"

[[record]]
compound = "CCC(C)c1ccccc1NC(=O)COC(=O)c1ccc2[nH]c3c(c2c1)CCCC3 (stereo not given)"
assigned_label = "active"

[[record]]
compound = "Cn1nc(-c2ccccc2F)c2cc(C(=O)Nc3ccc4c(c3)OCCO4)sc21"
assigned_label = "inactive"

[[record]]
compound = "CCC1=NN2C(=N)/C(=C/c3c(C)nn(-c4ccccc4)c3Cl)C(=O)N=C2S1"
assigned_label = "inactive"

[[record]]
compound = "O=C(N/N=C/c1ccc2c(c1)OCO2)c1ccc(COCC(F)(F)C(F)F)cc1"
assigned_label = "active"

[[record]]
compound = "CN(C)C(=O)/C(C#N)=C\\c1cc(Br)c(Sc2ccc(Cl)cc2)o1"
assigned_label = "active"

[[record]]
compound = "O=[N+]([O-])c1ccccc1-c1ccc(C(=S)N2CCN(c3ccccc3)CC2)o1"
assigned_label = "inactive"

[[record]]
compound = "CCCCC[C@@H]1C=C(C(=O)O)[C@H](c2ccc(Cl)c(Cl)c2)N1S(=O)(=O)c1ccc(C)cc1"
assigned_label = "active"

[[record]]
compound = "CN(C)CCNc1nc2sc3c(c2c(=O)n1CCc1ccccc1)CCCCC3"
assigned_label = "active"

[[record]]
compound = "O=S(=O)(c1ccccc1)N(CC(O)Cn1c2ccccc2c2ccccc21)c1ccccc1 (stereo not given)"
assigned_label = "active"

[[record]]
compound = "CC(C)N1CCc2c(sc(NC(=O)c3cc(-c4cccs4)nc4ccccc34)c2C(N)=O)C1"
assigned_label = "active"

[[record]]
compound = "O=C(N/C=N/OCc1ccc(Cl)cc1Cl)NOCc1ncc(C(F)(F)F)cc1Cl"
assigned_label = "active"

[[record]]
compound = "CC12CCC(C/C1=N\\N=C1\\NC(=O)/C(=C\\c3ccc(Cl)cc3)S1)C2(C)C (stereo not given)"
assigned_label = "active"

[[record]]
compound = "COc1ccc2nc(NC(=O)c3ccc([N+](=O)[O-])o3)sc2c1"
assigned_label = "active"

[[record]]
compound = "NC(=O)CC(NC(=O)Cc1cccc2ccccc12)c1ccc(NCc2ccc(F)c(F)c2)c([N+](=O)[O-])c1 (stereo not given)"
assigned_label = "active"

[[record]]
compound = "COc1ccc(-c2sc3ccccc3c2/C=C/c2ccc(N)cc2)cc1"
assigned_label = "active"

[[record]]
compound = "CCCc1cc2c(=O)c(-c3ccc4c(c3)OCCO4)coc2cc1OC(=O)c1ccco1"
assigned_label = "active"

[[record]]
compound = "O=C(O)CCCCCN1C(=O)/C(=C\\c2cn(-c3ccccc3)nc2-c2cccs2)SC1=S"
assigned_label = "active"

[[record]]
compound = "OCCN(CCO)CC(O)COc1ccc(C23CC4CC(CC(C4)C2)C3)cc1 (stereo not given)"
assigned_label = "active"

